TARGET DESC: T1, Biotinylated ADDL preparations (bADDLs) (N-terminal biotin)
T1 construct: Oligomer, number of copies not fixed; also called biotinylated ADDL antigen; high molecular weight 10% bADDL
ASSAY PROTOCOL: BIACORE, bADDL as antigen; column IgG1#2
Collected pKd values appear next to each entry.
pKd here: minus log base 10 of the concentration, concentration in moles per litre.

BINDER	pKd
20C2-8A, affinity matured humanized 20C2, IgG1 humanized A version (antibody, V domains shown, also called SJ-p2-39) VH: QVTLKESGPALVKPTQTLTLTCTFSGFSLSTSGMGVGWIRQPPGKALEWLAHIWWDDDKSYNPSLKSRLTISKDTSKNQVVLTMTNMDPVDTATYYCARRQLGLRSIDAMDYWGQGTTVTVSS VL: DVVMTQSPLSLPVTPGEPASISCRSSQSILHSNGNTYLEWYLQKPGQSPQLLIYKVSNRFSGVPDRFSGSGSGTDFTLKISRVEAEDVGVYYCLQTTRVPLTFGQGTKLEIKR	12.15

Supply reported pKd belonging to this binder: 20C2-5A, affinity matured humanized 20C2, IgG1 humanized A version (antibody, V domains shown, also called SJ-p2-1F) VH: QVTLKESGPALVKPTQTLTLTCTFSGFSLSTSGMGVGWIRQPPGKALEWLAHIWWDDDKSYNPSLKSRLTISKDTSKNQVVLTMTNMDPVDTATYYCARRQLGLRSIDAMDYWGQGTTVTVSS VL: DVVMTQSPLSLPVTPGEPASISCRSSQSILHSNGNTYLEWYLQKPGQSPQLLIYKVSNRFSGVPDRFSGSGSGTDFTLKISRVEAEDVGVYYCFQSSFVPLTFGQGTKLEIKR 10.17

Specify pKd for 20C2-6A, affinity matured humanized 20C2, IgG1 humanized A version (antibody, V domains shown, also called 4P1-22) VH: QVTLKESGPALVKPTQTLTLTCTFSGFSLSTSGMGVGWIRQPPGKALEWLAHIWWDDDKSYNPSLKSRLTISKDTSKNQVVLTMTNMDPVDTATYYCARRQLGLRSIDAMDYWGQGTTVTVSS VL: DVVMTQSPLSLPVTPGEPASISCRSSQSILHSNGNTYLEWYLQKPGQSPQLLIYKVSNRFSGVPDRFSGSGSGTDFTLKISRVEAEDVGVYYCFQSSRVPLTFGQGTKLEIKR and stop. 10.62

Assign pKd to the following record: 20C2-9A, affinity matured humanized 20C2, IgG1 humanized A version (antibody, V domains shown, also called SJ-p2-51) VH: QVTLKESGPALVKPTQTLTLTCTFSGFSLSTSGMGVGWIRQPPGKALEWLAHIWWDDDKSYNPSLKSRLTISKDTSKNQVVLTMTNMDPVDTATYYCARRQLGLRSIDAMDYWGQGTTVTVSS VL: DVVMTQSPLSLPVTPGEPASISCRSSQSILHSNGNTYLEWYLQKPGQSPQLLIYKVSNRFSGVPDRFSGSGSGTDFTLKISRVEAEDVGVYYCVQTSLVPLTFGQGTKLEIKR 11.70

Please report the measured pKd for 20C2-8B, affinity matured humanized 20C2, IgG1 humanized B version (antibody, V domains shown, also called SJ-p2-39) VH: QVTLKESGPALVKPTQTLTLTCTLSGFSLSTSGMGVGWIRQPPGKALEWLAHIWWDDDKSYNPSLKSRLTISKDTSKNQVVLTMTNMDPVDTATYYCARRQLGLRSIDAMDYWGQGTTVTVSS VL: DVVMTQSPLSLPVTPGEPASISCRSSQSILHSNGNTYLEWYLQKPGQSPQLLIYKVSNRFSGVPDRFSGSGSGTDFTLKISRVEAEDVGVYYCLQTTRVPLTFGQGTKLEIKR 12.10
